measurement protocol: Volume of distribution in Sprague-Dawley rat at 5 mg/kg, iv and 15 mg/kg, po
Format: ADME, organism-based
applied conditions: in vivo, read-out: Vdss

input smiles: C=C[C@]12OC(=O)N(CCCCn3cnc(-c4ccc(C)nc4)c3)[C@@H]1[C@@H](C)C(=O)[C@H](C)C[C@@](C)(OC)[C@H](O[C@@H]1O[C@H](C)C[C@H](N(C)C)[C@H]1O)[C@@H](C)C(=O)[C@@H](C)C(=O)O[C@@H]2CC
Vd, L/kg: 14

input smiles: CC[C@H]1OC(=O)[C@H](C)C(=O)[C@H](C)[C@@H](O[C@@H]2O[C@H](C)C[C@H](N(C)C)[C@H]2O)[C@](C)(OC)C[C@@H](C)C(=O)[C@H](C)[C@H]2N(CCCCn3cnc(-c4cccnc4)c3)C(=O)O[C@]12C
Vd, L/kg: 5

input smiles: C=C[C@]12OC(=O)N(CCCCn3cnc(-c4ccc(Cl)nc4)c3)[C@@H]1[C@@H](C)C(=O)[C@H](C)C[C@@](C)(OC)[C@H](O[C@@H]1O[C@H](C)C[C@H](N(C)C)[C@H]1O)[C@@H](C)C(=O)[C@@H](C)C(=O)O[C@@H]2CC
Vd, L/kg: 12

----------
Measured MIC by item
Tested on: Haemophilus influenzae
measurement protocol: Antibacterial activity against Haemophilus influenzae 49247
Assay type: functional
measured attribute: MIC (µg/mL)

input smiles: C=C[C@]12OC(=O)N(CCCCn3cnc4c(C)ncnc43)[C@@H]1[C@@H](C)C(=O)[C@H](C)C[C@@](C)(OC)[C@H](O[C@@H]1O[C@H](C)C[C@H](N(C)C)[C@H]1O)[C@@H](C)C(=O)[C@@H](C)C(=O)O[C@@H]2CC
measured value: 3.13
--
input smiles: C=C[C@]12OC(=O)N(CCN(C)Cc3ccnc(-c4cccnc4)c3)[C@@H]1[C@@H](C)C(=O)[C@H](C)C[C@@](C)(OC)[C@H](O[C@@H]1O[C@H](C)C[C@H](N(C)C)[C@H]1O)[C@@H](C)C(=O)[C@@H](C)C(=O)O[C@@H]2CC
measured value: 6.25
--
input smiles: C=C[C@]12OC(=O)N(CCCCn3cnc(-c4ccc(Cl)nc4)c3)[C@@H]1[C@@H](C)C(=O)[C@H](C)C[C@@](C)(OC)[C@H](O[C@@H]1O[C@H](C)C[C@H](N(C)C)[C@H]1O)[C@@H](C)C(=O)[C@@H](C)C(=O)O[C@@H]2CC
measured value: 3.13
--
input smiles: C=C[C@]12OC(=O)N(CCCCn3cc(Cl)c4ncccc43)[C@@H]1[C@@H](C)C(=O)[C@H](C)C[C@@](C)(OC)[C@H](O[C@@H]1O[C@H](C)C[C@H](N(C)C)[C@H]1O)[C@@H](C)C(=O)[C@@H](C)C(=O)O[C@@H]2CC
measured value: 3.13
--
input smiles: C=C[C@]12OC(=O)N(CCCC(C)(C)n3cnc4ncccc43)[C@@H]1[C@@H](C)C(=O)[C@H](C)C[C@@](C)(OC)[C@H](O[C@@H]1O[C@H](C)C[C@H](N(C)C)[C@H]1O)[C@@H](C)C(=O)[C@@H](C)C(=O)O[C@@H]2CC
measured value: 6.25
--
input smiles: C=C[C@]12OC(=O)N(CCN(C)Cc3cccc(-c4cccnc4)c3)[C@@H]1[C@@H](C)C(=O)[C@H](C)C[C@@](C)(OC)[C@H](O[C@@H]1O[C@H](C)C[C@H](N(C)C)[C@H]1O)[C@@H](C)C(=O)[C@@H](C)C(=O)O[C@@H]2CC
measured value: 6.25
--
input smiles: C=C[C@]12OC(=O)N(CCCCn3cnc(-c4ccc(OC)nc4)c3C)[C@@H]1[C@@H](C)C(=O)[C@H](C)C[C@@](C)(OC)[C@H](O[C@@H]1O[C@H](C)C[C@H](N(C)C)[C@H]1O)[C@@H](C)C(=O)[C@@H](C)C(=O)O[C@@H]2CC
measured value: 6.25
--
input smiles: C=C[C@]12OC(=O)N(CCCCn3cc(-c4ccc(Cl)nc4)nc3C)[C@@H]1[C@@H](C)C(=O)[C@H](C)C[C@@](C)(OC)[C@H](O[C@@H]1O[C@H](C)C[C@H](N(C)C)[C@H]1O)[C@@H](C)C(=O)[C@@H](C)C(=O)O[C@@H]2CC
measured value: 6.25
--
input smiles: C=C[C@]12OC(=O)N(CCCCn3cnc(-c4ccc(N(C)C)nc4)c3)[C@@H]1[C@@H](C)C(=O)[C@H](C)C[C@@](C)(OC)[C@H](O[C@@H]1O[C@H](C)C[C@H](N(C)C)[C@H]1O)[C@@H](C)C(=O)[C@@H](C)C(=O)O[C@@H]2CC
measured value: 12.5
--
input smiles: C=C[C@]12OC(=O)N(CCCCn3cnc4cccnc43)[C@@H]1[C@@H](C)C(=O)[C@H](C)C[C@@](C)(OC)[C@H](O[C@@H]1O[C@H](C)C[C@H](N(C)C)[C@H]1O)[C@@H](C)C(=O)[C@@H](C)C(=O)O[C@@H]2CC
measured value: 1.56
--
input smiles: C=C[C@]12OC(=O)N(CCCCn3ccc4ncccc43)[C@@H]1[C@@H](C)C(=O)[C@H](C)C[C@@](C)(OC)[C@H](O[C@@H]1O[C@H](C)C[C@H](N(C)C)[C@H]1O)[C@@H](C)C(=O)[C@@H](C)C(=O)O[C@@H]2CC
measured value: 6.25
--
input smiles: C=C[C@]12OC(=O)N(CCCCn3ccc4c(N)cccc43)[C@@H]1[C@@H](C)C(=O)[C@H](C)C[C@@](C)(OC)[C@H](O[C@@H]1O[C@H](C)C[C@H](N(C)C)[C@H]1O)[C@@H](C)C(=O)[C@@H](C)C(=O)O[C@@H]2CC
measured value: 3.13
--
input smiles: C=C[C@]12OC(=O)N(CCCCn3cnc(-c4ccc(OC)nc4)c3)[C@@H]1[C@@H](C)C(=O)[C@H](C)C[C@@](C)(OC)[C@H](O[C@@H]1O[C@H](C)C[C@H](N(C)C)[C@H]1O)[C@@H](C)C(=O)[C@@H](C)C(=O)O[C@@H]2CC
measured value: 6.25
--
input smiles: C=C[C@]12OC(=O)N(CCCCn3cnc(-c4cnc(C)cn4)c3)[C@@H]1[C@@H](C)C(=O)[C@H](C)C[C@@](C)(OC)[C@H](O[C@@H]1O[C@H](C)C[C@H](N(C)C)[C@H]1O)[C@@H](C)C(=O)[C@@H](C)C(=O)O[C@@H]2CC
measured value: 3.13
--
input smiles: C=C[C@]12OC(=O)N(CCCCc3ccc(-c4cccnc4)s3)[C@@H]1[C@@H](C)C(=O)[C@H](C)C[C@@](C)(OC)[C@H](O[C@@H]1O[C@H](C)C[C@H](N(C)C)[C@H]1O)[C@@H](C)C(=O)[C@@H](C)C(=O)O[C@@H]2CC
measured value: 3.13
--
input smiles: CC[C@H]1OC(=O)[C@H](C)C(=O)[C@H](C)[C@@H](O[C@@H]2O[C@H](C)C[C@H](N(C)C)[C@H]2O)[C@](C)(OC)C[C@@H](C)C(=O)[C@H](C)[C@H]2N(CCCCn3cnc(-c4cccnc4)c3)C(=O)O[C@]12C
measured value: 3.13
--
input smiles: C=C[C@]12OC(=O)N(CCCCn3cnc4ncccc43)[C@@H]1[C@@H](C)C(=O)[C@H](C)C[C@@](C)(OC)[C@H](O[C@@H]1O[C@H](C)C[C@H](N(C)C)[C@H]1O)[C@@H](C)C(=O)[C@@H](C)C(=O)O[C@@H]2CC
measured value: 1.56
--
input smiles: C=C[C@]12OC(=O)N(CCCCn3cnc(-c4cnccn4)c3)[C@@H]1[C@@H](C)C(=O)[C@H](C)C[C@@](C)(OC)[C@H](O[C@@H]1O[C@H](C)C[C@H](N(C)C)[C@H]1O)[C@@H](C)C(=O)[C@@H](C)C(=O)O[C@@H]2CC
measured value: 3.13
